- Assay target: Flap endonuclease 1 (Homo sapiens)
- Test summary: qHTS Validation Assay for the Inhibitors of Human Flap endonuclease 1 (FEN1) (AID 488816)
- Condition notes: FEN1 nuclease activity, fluorogenic DNA substrate; series mostly up to 57.1 µM
Activity calls are given as the source filed them. Calls follow the shape of the dose curve; as a rule, active = well fitted inhibition curve with a large enough effect; inconclusive = small, poorly fitted or top-dose-only effect; inactive = flat fitted curve, though single readings scatter.
Parameter call: string, one of active, inactive

Answered cases to consult:
Recorded call for C#CC(N)CCC(=O)O (centres undefined) ?
inactive

Could you kindly confirm the outcome this assay logged for "CCCCCCCCCCCCCCCCCCOC[C@H](COP(=O)([O-])OCC[N+](C)(C)C)OC" ?
inactive

Identify the outcome logged in this assay for the compound shown: "CC(=O)NCCc1c[nH]c2ccc(O)cc12"
inactive

***
Field: outcome | Entry: O=C(O)C1CCCNC1 (centres undefined)
inactive

Can you look up the reported call for "c1ccc(C(NCCNC(c2ccccc2)c2ccccc2)c2ccccc2)cc1" for me?
inactive

So what was the verdict on "NC(=O)c1ccccc1" in this test?
inactive

Fill in: this test's call for "NCCCCN" is ___
inactive

Hey, what did the test say about "CC(C)C[C@H](NC(=O)[C@H](O)[C@H](N)Cc1ccccc1)C(=O)O" ?
inactive

I'd appreciate the recorded outcome for "O=C(O)c1cc(=O)cc(C(=O)O)[nH]1" from this test.
inactive

Data origin: PubChem BioAssay (NCATS)
